Hey, just so you know, these numbers are from paper PMC9285603.

Target: 20S immunoproteasome (Bos taurus, UniProt Q3SZC2+Q3T0T1+Q3T112)
Construct: isolated constitutive and immunoproteasomes purified from bovine brain and thymus, respectively; from tissue; host or cells: bovine thymus
Assay: In vitro activity assays on isolated immunoproteasome (fluorogenic peptides)
Type: biochemical
Conditions: isolated 20S from bovine thymus; read-out: IC50 T‐L Immunoproteasome
Experimental: PVLs effects on the 20S constitutive and immunoproteasome peptidase activities were measured through in vitro assays performed with fluorogenic peptides as substrates. […] Final incubation was performed at 37°C, and after 60 min the fluorescence of the hydrolyzed 7‐amino‐4‐methyl‐coumarin (AMC) and 4‐aminobenzoic acid (pAB) was detected (AMC, λexc = 365 nm, λem = 449 nm; pAB, λexc = 304 nm, λem = 664 nm) on a SpectraMax Gemini XPS microplate reader. […]
I'd be grateful if you could share measured IC50 for these entries.
Reply numerically in nM, unit not repeated.

compound O=C1CCC(Cc2ccc(O)c(O)c2)O1 (stereo not drawn) , IC50 observed: 334

compound O=C1CCC(Cc2ccc(O)cc2)O1 (stereo not drawn) [Compound C1, 5‐(4ʹ‐hydroxyphenyl)‐γ‐valerolactone] , IC50 observed: 227

compound O=C1CCC(Cc2ccc(OS(=O)(=O)O)c(O)c2)O1 (stereo not drawn) , IC50 observed: 588
